Attribution: patent US20260234269A1

I'd be grateful if you could share measured GAL3-TIM3 Blocking @ 3 ug/mL for these entries.
target: T1, Human Galectin-3 protein (Acro Biosystems, GA3-H5129) (human, UniProt P17931 2-250); experiment: ELISA, hGal3 coated, antibody 3 ug/mL, competitor hTIM3
T1 construct: Bought protein; also called hGal3; Gal3; not shown: linker-spaced 6-histidine tag
T1 sequence (P17931 2-250): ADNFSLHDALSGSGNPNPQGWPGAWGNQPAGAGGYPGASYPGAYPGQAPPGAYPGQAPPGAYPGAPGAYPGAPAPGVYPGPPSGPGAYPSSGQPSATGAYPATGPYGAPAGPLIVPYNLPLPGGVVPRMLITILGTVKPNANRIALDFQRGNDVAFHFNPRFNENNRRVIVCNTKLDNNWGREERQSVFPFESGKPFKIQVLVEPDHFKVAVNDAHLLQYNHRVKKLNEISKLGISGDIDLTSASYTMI
Return type: number; implicit unit %.

Record summary for 13A12.2E5 (antibody, V domains shown, murine antibody) VH: QIQLVQSGPELKKPGETVKISCKTSGYKFKTYVMSWVKQAPGKALKWMGWINTYSGVPTYADDFKGRFAFSLETSASTAYLEIINLKNEDTATYFCARDGNYGDPMDYWGQGTSVTVSS VL: DVVMTQTPLTLSVAIGQPASISCKSSQSLLYTNGKTYLNWLLQRPGQSPKRLIYLLSKLDSGVPDRFSASGSGTDFTLKISRVEAEDLGVYYCLQSTHFPLTFGAGTKLEMK : reported GAL3-TIM3 Blocking @ 3 ug/mL = 35

Record summary for 846.2H3 (antibody, V domains shown, murine antibody) VH: QIQLVQSGPELKKPGETVKISCKASGYTFTNYGMNWVKQAPGKGLKWMGWINTYTGEPSYADDFKGRFAFSLETSASTAYLQINNLKNEDMATYFCARWGGYDGDYYAMDYWGQGTSVTVSS VL: NIMMTQSPSSLAVSAGEKVTMSCKSSQSVLYSSNQKNYLAWYQQKPGQSPKLLIYWASTRESGVPDRFTGSGSGTDFTLTISSVQPEDLAVYYCHQYLSSLTFGAGTKLELK : reported GAL3-TIM3 Blocking @ 3 ug/mL = 100

Record summary for 20D11.2C6 (antibody, V domains shown, murine antibody) VH: EVQLQQSGPELVKPGASVKISCKASGYTFTDFYINWVKQSHGKSLEWIGDINPKNGGINYNPKFKIKATLTVDKSSSTSYMDLRGLTSEDSAVYYCTSGYGFPYWGQGTLVTVSA VL: DIQMNQSPSSLSASLGDTITITCRASQNIYIWLSWYQQKPGNIPKLLIYKASNLHTGVPSRFSGSGSGTDFTLTISTLQPEDIATYFCLQGQSYPLTFGAGTKLEMK : reported GAL3-TIM3 Blocking @ 3 ug/mL = 40

Record summary for 19B5.2E6 (antibody, V domains shown, murine antibody) VH: QIQLVQSGPELKKPGETVKISCKASGYTFTTYAMSWVKQAPGKGLKWMGWINTYSGVPTYADDLKGRFAFSLETSASTAYLQINNLKNEDTATYFCARGPYAMDYWGQGTSVTVSS VL: DIQMTQTTSSLSASLGDRVTISCSASQGINNYLNWYQQKPDGTVKLLIYYASSLHSGVPSRFSGSGSGTDYSLTISNLEPEDIATYYCQQYSQVPYTFGSGTKLEIK : reported GAL3-TIM3 Blocking @ 3 ug/mL = 61

Record summary for mIMT001 (IMT001) (antibody, V domains shown, treated here as one molecule; also called mAb IMT001; Gal3 antibody clone IMT001) VH: QIQLVQSGPELKKPGETVKISCKASGYTFTNYGMNWVKQAPGKGLKWMGWINTNTGEPTYVEEFKGRFAFSLETSASTAYLQINNLKNEDTATYFCAPYDNFFAYWGQGTLVTVSA VL: DIVITQDELSNPVTSGESVSISCRSSKSLLYKDGKTYLNWFLQRPGQSPQLLIYLMSTHASGVSDRFSGSGSGTDFTLEISRVKAEDVGVYYCQQLVDYPLTFGAGTKLELK : reported GAL3-TIM3 Blocking @ 3 ug/mL = 80

Record summary for 15G7.2A7 (antibody, V domains shown, murine antibody) VH: EVQLQQSGPELVKPGASVKISCKASGYTFTDYYMNWVKQSHGKSLEWIGDINPNNGGTNYNQKFKGKATLTVDKSSSTAYMELRSLTSEDSAVYYCTSGYGFPYWGQGTLVTVSA VL: DIQMNQSPSSLSASLGDTISITCRASQNINIWLSWYQQKPGNIPQLLIYKASNLHTGVPSRFSGSGSGTDFTLTISSLQPEDIATYYCLQGQSYPLTFGAGTKLVMK : reported GAL3-TIM3 Blocking @ 3 ug/mL = 48

Record summary for 24D12.2H9 (antibody, V domains shown, murine antibody) VH: QVQLKQSGPGLVQPSQSLSITCTVSGFSLTSYGVHWVRQAPGKGLEWLGVIWSGGSTDYNAAFMSRLSISKDNSKSQVFFKMNSLQADDTAIYYCAKSPDGYDVAWFGYWGQGTLVTVSA VL: DIVMTQSHKFMSTSVGDRVSITCKASQDVRTAVAWYQQKPGQSPKLLIYWASTRHTGVPDRFTGSGSGTDFTLTLSNVQSEDLADYFCQQYSSYPWTFGGGTKLEIK : reported GAL3-TIM3 Blocking @ 3 ug/mL = 0

Record summary for 20H5.A3 (antibody, V domains shown, murine antibody) VH: QIQLVQSGPELKKPGESVKISCKASGYAFTTYGMSWVQQAPGKGLKWMGWVNTYSGVPTCADDFKGRFAFSLETSASTAYLQINNLRNEDTATYFCARGPYAMDYWGQGTSVTVSS VL: DIQMTQTTSSLSASLGDRVTINCSASQDISNYLNWYQQKPDGTVKLLIYYTSSLLSGVPSRFSGSGSGTDYSLTISNLEPEDIATYFCQQYSKLPYTFGSGTHLEIK : reported GAL3-TIM3 Blocking @ 3 ug/mL = 81

Record summary for 15F10.2D6 (antibody, V domains shown, murine antibody) VH: EVQLVESGGGLVKPGGSLKLSCAASGFAFSSYAMSWVRQTPEKRLEWVATISDGGVYTYYTDHVKGRFTISRDNAEDNLYLQMSHLKSEDTAMYYCVRDGGYWGQGTTLTVSS VL: DVLMTQTPLSLPVSLGDQASISCRSSQSIVHNNGNTYLEWYLQKPGQSPKLLIYKVSNRFSGVPDRFSGSGSGTDFTLKISRVEAEDLGVYYCFQGSHVPLTFGGGTKLELK : reported GAL3-TIM3 Blocking @ 3 ug/mL = 19

Record summary for 7D8.2D8 (antibody, V domains shown, murine antibody) VH: EVQLVESGGGLVKPGGSLKLSCAASGFTFSSYAMSWVRQTPEKRLEWVATISDGGIYTYYPDNVKGRFTISRDNAKNNLFLQMSHLKSEDTAMYYCVRDGGYWGQGTTLTVSS VL: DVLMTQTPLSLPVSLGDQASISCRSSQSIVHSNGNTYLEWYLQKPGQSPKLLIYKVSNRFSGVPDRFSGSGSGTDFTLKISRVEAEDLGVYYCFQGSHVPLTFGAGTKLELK : reported GAL3-TIM3 Blocking @ 3 ug/mL = 12
